The following molecules each carry a recorded Ki for human M3 receptor (Homo sapiens (Human)).

Please review the following examples before continuing.
MOLECULE	METRIC_NAME	RESULT
C[C@@H]1CN(c2ccc(F)c(C#N)c2)CCN1C(=O)NC[C@@H](O)C1CCN(Cc2ccccc2)CC1 [3-18]	Ki	> 1 µM
Cc1c(C(=O)NC[C@H](O)C2CCN(Cc3ccccc3)CC2)cnc2cc(-c3cccc(C(F)(F)F)c3)nn12 [17-6]	Ki	> 1 µM
C[C@@H]1CN(c2ccc(F)c(F)c2)CCN1C(=O)NCCC1CCN(Cc2ccccc2)CC1 [4-15]	Ki	> 1 µM
C[C@@H]1CN(c2cnc(C(F)(F)F)cn2)C[C@@H](C)N1C(=O)NCCC1CCN(Cc2ccccc2)CC1 [26-4]	Ki	> 1 µM

# query: Ki of entry CNc1nc(N2CCN(C(=O)NCCC3CCN(Cc4ccccc4)CC3)[C@H](C)C2)ncc1C#N [5-23]
> 1 µM

# query: Ki of entry C[C@@H]1CN(c2cc(F)c(C#N)c(F)c2)C[C@H](C)N1C(=O)NCCC1CCN(Cc2ccccc2)CC1 [22-9]
> 1 µM

# query: Ki of entry C[C@H]1CN(c2ccc(OC(F)(F)F)c(F)c2)CCN1C(=O)NCCC1CCN(Cc2ccccc2)CC1 [4-53]
0.1 to 1 µM

# query: Ki of entry N#Cc1cc(N2CCC(C(=O)NCCC3CCN(Cc4ccccc4)CC3)CC2)ccc1F [9-73]
> 1 µM

# query: Ki of entry C[C@@H]1CN(c2cnc(C(F)(F)F)cn2)CCN1C(=O)NCCC1CCN(Cc2ccccc2)CC1 [22-22]
> 1 µM

# query: Ki of entry C[C@@H]1CN(c2ncc(C#N)cn2)C[C@@H](C)N1C(=O)NCCC1CCN(Cc2ccccc2)CC1 [26-2]
> 1 µM

# query: Ki of entry C[C@@H]1CN(c2cnc(C(F)(F)F)nc2)C[C@H](C)N1C(=O)NCCC1CCN(Cc2ccc3[nH]ccc3c2)CC1 [6-50]
0.1 to 1 µM

# query: Ki of entry C[C@H]1CN(c2ccc(C#N)cn2)CCC1C(=O)NCCC1CCN(Cc2ccccc2)CC1 (some centres unmarked) [10-79]
> 1 µM

# query: Ki of entry C[C@@H]1CN(c2ccc(C(F)(F)F)cc2)CCN1C(=O)NCCC1CCN(Cc2ccccc2)CC1 [4-5]
> 1 µM

# query: Ki of entry C[C@@H]1CN(c2ncc(C(F)(F)F)c(N)n2)C[C@H](C)N1C(=O)NCCC1CCN(Cc2ccccc2)CC1 [5-28]
> 1 µM

# query: Ki of entry Cc1ccccc1CN1CCC(CCNC(=O)N2CCN(c3ncc(C(F)(F)F)cn3)C[C@H]2C)CC1 [6-35]
0.1 to 1 µM

# query: Ki of entry C[C@@H]1CN(c2ncc(C#N)cn2)C[C@H](C)N1C(=O)NCCC1CCN(Cc2ccc3[nH]ccc3c2)CC1 [6-47]
0.1 to 1 µM

# query: Ki of entry O=C(NCCC1CCN(Cc2ccccc2)CC1)C1CCN(c2ncc(C(F)(F)F)cc2Cl)CC1 [9-63]
0.01 to 0.1 µM

# query: Ki of entry C[C@@H]1CN(c2ccc(OC(F)(F)F)c(C#N)c2)CCN1C(=O)NC[C@@H](O)C1CCN(Cc2ccccc2)CC1 [3-21]
> 1 µM

# query: Ki of entry O=C(NCCC1CCN(Cc2ccccc2)CC1)C1CCN(c2cc(F)c(F)c(F)c2)CC1 [10-7]
> 1 µM

# query: Ki of entry C[C@@H]1CN(c2ccc(C#N)cc2F)C[C@H](C)N1C(=O)NCCC1CCN(Cc2ccccc2)CC1 [22-3]
> 1 µM

# query: Ki of entry O=C(NCCC1CCN(Cc2ccccc2)CC1)C1CCN(c2ccc(F)c(F)c2)CC1 [10-21]
> 1 µM

# query: Ki of entry C[C@@H]1CN(c2ncc(Cl)cn2)C[C@H](C)N1C(=O)NCCC1CCN(Cc2ccccc2)CC1 [5-18]
> 1 µM
